Here, molecules appear alongside Ki reported for 5-hydroxytryptamine receptor 1A (Rattus norvegicus, UniProt P19327) in the literature.
QUANTITY_MEASURED: Ki (nM)

>>> endpoint_result("COc1ccccc1N1CCN(CCN2C(=O)CC3(CCCCC3)C2=O)CC1")
5.7
>>> endpoint_result("CCCN(CCC)[C@H]1CCc2c(cccc2-c2c(OC)cccc2OC)C1")
347
>>> endpoint_result("CN1CCc2ccc(OCCCN3CCN(c4ccccc4Cl)CC3)cc2C1=O")
89.2
>>> endpoint_result("COc1ccccc1N1CCN(CCn2cnc3c(cnc4ccccc43)c2=O)CC1")
42
>>> endpoint_result("[11CH3]Oc1cccc2c1CCN(CCCc1c[nH]c3ccc(I)cc13)C2")
1120
>>> endpoint_result("O=C1c2ccccc2S(=O)(=O)N1CCCCN1CCN(c2ncccn2)CC1")
10

A. c1ccc2c(c1)OCC(COCCCN1CCC(c3nc4ccccc4o3)CC1)O2 (configuration not stated)
B. O=C(c1ccc(F)c(Cl)c1)N1CCC(F)(CNCc2ccc(CF)cn2)CC1
Which gives the smaller Ki number: A or B ? Returns: label corresponding to the selected item. B
